Just for reference, patent US11369593B2 is where these values come from.

Reported values of viability at 3 µM for individual entries
Test system: PC12 cells
Test: Etoposide-induced apoptosis in PC12 cells, cell viability
Type: cell-based
Settings: Rattus norvegicus, PC-12; 3 μM compound; etoposide-induced apoptosis, PC12 cells; read-out: % Viability 3 μM

As a guide, the following entries are already answered.
                                   molecule  tested_target  result
0        CCOC(=O)Nc1ccc(NCc2cccc(OC)c2)nc1N     PC12 cells   87.5%
1  Nc1nc(NCc2ccc(F)cc2)ccc1NC(=O)OCc1ccccc1     PC12 cells     82%
2          CCOC(=O)Nc1ccc(NCc2ccc(F)cc2)nc1     PC12 cells    110%
3        CCCOC(=O)Nc1ccc(NCc2ccc(F)cc2)cc1N     PC12 cells   55.6%
4  CCOC(=O)Nc1ccc(NCc2cccc(C(F)(F)F)c2)nc1N     PC12 cells   68.2%

Sample "CCOC(=O)Nc1ccc(OCc2ccc(C(F)(F)F)cc2)nc1N" ; viability at 3 µM observed: 69.9%

Sample CCOC(=O)Nc1ccc(NC(C)c2ccccc2)nc1N (stereo not shown) ; viability at 3 µM observed: 66.2%

Sample "CCOC(=O)Nc1ccc(NCc2ccc(F)cc2F)nc1N" ; viability at 3 µM observed: 78%

Sample "CCCCCCOC(=O)Nc1ccc(NCc2ccc(F)cc2)cc1N" ; viability at 3 µM observed: 60.1%
